Assignment: determine reported log10 of solubility for the given compounds.
test.details: Solubility in PBS
Type: physicochemical
test.settings: aqueous buffer
// do not treat as linear: log10 of solubility, unit µM

# annotated cases, reported log10 of solubility shown
O=C(NC(c1cccc(F)c1)c1ccccn1)C1CCN(CCOc2ccccc2)CC1 (stereo not shown) = 2.66
O=C(NC(c1ccc(Cl)cc1)c1ccccn1)C1CCN(CCOc2cccc(C(F)(F)F)c2)CC1 (stereo not shown) = -0.15

Give one value of log10 of solubility per listed compound.
1. O=C(NC(c1ccc(Cl)cc1)c1ccccn1)C1CCN(CCOc2ccc3cccnc3c2)CC1 (stereo not shown)
2. CN(CC1CCN(CCOc2ccccc2F)CC1)C(c1ccc(Cl)cc1)c1ccccn1 (single isomer, unassigned) [Compound 72a]
3. COc1cccc(C(NCC2CCN(CCOc3ccccc3F)CC2)c2ccccn2)c1 (stereo not shown)
4. O=C(NC(c1ccc(Cl)cc1)c1ccccn1)C1CCN(CCOc2ccc(C(F)(F)F)cc2)CC1 (stereo not shown)
5. O=C(NC(c1ccc(F)cc1)c1ccccn1)C1CCN(CCOc2ccccc2Cl)CC1 (stereo not shown)
6. O=C(NC(c1ccccc1)c1ccc(F)cc1)C1CCN(CCOc2ccccc2)CC1 (stereo not shown)
7. O=C(NC(c1ccccn1)C1CCCCC1)C1CCN(CCOc2ccccc2)CC1 (stereo not shown)

a:
1.15
0.15
2.66
0.04
2.17
0.81
2.29

Hi, could you look up log10 of solubility for each item in my list?
1. O=C(NC(c1ccc(Cl)cc1)c1ccccn1)C1CCN(CCOc2ccccc2C(F)(F)F)CC1 (stereo not shown)
2. O=C(NC(c1ccccc1)c1ccc(Cl)cc1)C1CCN(CCOc2ccccc2)CC1 (stereo not shown)

a:
[-0.15, 0.52]

# batch size: 2; output log10 of solubility per entry
1. O=C(NC(c1ccc(Cl)cc1)c1ccccn1)C1CCN(CCOc2ccc(F)cc2)CC1 (stereo not shown)
2. O=C(NC(c1ccc(C(F)(F)F)cc1)c1ccccn1)C1CCN(CCOc2ccccc2)CC1 (stereo not shown)

a:
1. 2.49
2. 1.43
